Each entry below carries its recorded pIC50.
Molecular target: human pancreatic lipase (hPL) (Homo sapiens, UniProt P16233)
Bear in mind: pIC50 is minus log10 of a mol/L concentration; give just that figure.

See these solved cases before continuing.
>>> value("O=c1c(O)c(-c2ccc(O)cc2)oc2cc(O)cc(O)c12")
4.56
>>> value("O=C(O[C@@H]1Cc2c(O)cc(O)cc2O[C@@H]1c1ccc(O)c(O)c1)c1cc(O)c(O)c(O)c1 [ECG, epicatechin gallate]")
6.79
>>> value("O=C(OC[C@H]1O[C@@H](OC(=O)c2cc(O)c(O)c(O)c2)[C@H](OC(=O)c2cc(O)c(O)c(O)c2)[C@@H](OC(=O)c2cc(O)c(O)c(O)c2)[C@@H]1OC(=O)c1cc(O)c(O)c(O)c1)c1cc(O)c(O)c(O)c1")
7.59

Now, please, on to the next molecule.
Given the molecule "O=c1cc(-c2ccc(O)c(O)c2)oc2cc(O)cc(O)c12" , what is its reported pIC50?
6.11

* * *

Sequence of the target: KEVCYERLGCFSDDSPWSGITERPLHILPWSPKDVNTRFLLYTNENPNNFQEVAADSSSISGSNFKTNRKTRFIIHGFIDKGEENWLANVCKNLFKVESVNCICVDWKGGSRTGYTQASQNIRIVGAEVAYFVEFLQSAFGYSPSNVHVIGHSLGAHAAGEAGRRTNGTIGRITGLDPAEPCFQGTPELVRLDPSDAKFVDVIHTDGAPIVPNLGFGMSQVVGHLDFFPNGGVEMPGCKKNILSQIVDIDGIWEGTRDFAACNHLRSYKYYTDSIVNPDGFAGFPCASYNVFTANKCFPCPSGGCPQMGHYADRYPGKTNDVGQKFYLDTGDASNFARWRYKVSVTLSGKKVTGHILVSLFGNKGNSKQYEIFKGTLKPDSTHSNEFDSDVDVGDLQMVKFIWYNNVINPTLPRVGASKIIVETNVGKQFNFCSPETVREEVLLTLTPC
pIC50: −log10 of the molar value.
measurement type: pIC50

Worked set:
>>> value("O=c1c(O[C@@H]2O[C@H](CO)[C@@H](O)[C@H](O)[C@H]2O)c(-c2ccc(O)c(O)c2)oc2cc(O)cc(O)c12 [Quercetin-3-O-glucoside, quercetin-3-O-glucoside]")
"< 4.00"
>>> value("O=C(O)/C=C/c1ccc(O)cc1")
"< 4.00"
>>> value("Oc1cc(O)c2c(c1)O[C@H](c1ccc(O)c(O)c1)[C@H](O)C2 [Epicatechin, epicatechin]")
"< 4.00"
>>> value("O=C1C[C@@H](c2ccc(O)c(O)c2)Oc2cc(O)cc(O)c21")
"< 4.00"
>>> value("C[C@@H]1O[C@@H](Oc2cc(O)c3c(=O)c(O)c(-c4ccc(O)cc4)oc3c2O)[C@H](O)[C@H](O)[C@H]1O")
"< 4.00"

May I ask what pIC50 has been recorded for "C[C@@H]1O[C@@H](Oc2c(-c3ccc(O)c(O)c3)oc3cc(O)cc(O)c3c2=O)[C@H](O)[C@H](O)[C@H]1O" ?
< 4.00
